Quick reference: remaining at 10 min of the listed items.
- protocolText: Metabolic stability in human liver microsomes assessed as parent compound remaining after 10 mins
- Assay type: ADME, microsome
- assaySetup: read-out: Stability

* CNC(=O)c1ccn(-c2ncc(OC)c3c(C(=O)C(=O)N4CCN(C(=O)c5ccccc5)CC4)c[nH]c23)n1 | 87%

INPUT: Please give measured remaining at 10 min of the following entry: COc1cnc(-n2ccc(N)n2)c2[nH]cc(C(=O)C(=O)N3CCN(C(=O)c4ccccc4)CC3)c12
OUTPUT: 98%

INPUT: Output remaining at 10 min of COc1cnc(-n2ccnn2)c2[nH]cc(C(=O)C(=O)N3CCN(C(=O)c4ccccc4)[C@H](C)C3)c12
OUTPUT: 83%

INPUT: Read off the recorded remaining at 10 min for COc1cnc(-n2ccnn2)c2[nH]cc(C(=O)C(=O)N3CCN(C(=O)c4ccccc4)CC3)c12
OUTPUT: 83%

INPUT: Supply remaining at 10 min value. Item: CCc1ncn(-c2ncc(OC)c3c(C(=O)C(=O)N4CCN(C(=O)c5ccccc5)[C@H](C)C4)c[nH]c23)n1
OUTPUT: 84%
